Measurement notes: Itraconazole (strong CYP3A inhibitor) DDI study, plasma pharmacokinetics
Type: in vivo, human
Condition info: both sexes, human, plasma, po, 50 mg, ripretinib 50 mg single oral dose alone, fasting, healthy participants (itraconazole study, N = 20); read-out: Cmax, geometric mean (CV%)
Metric name: Cmax
Number plus unit, in that order.

Challenge: Given the entry CCn1c(=O)c(-c2cc(NC(=O)Nc3ccccc3)c(F)cc2Br)cc2cnc(NC)cc21 [Ripretinib] , report its measured Cmax.
Response given: 291 ng/mL

----------
Measurement notes: Itraconazole (strong CYP3A inhibitor) DDI study, plasma pharmacokinetics
Assay type: in vivo, human
Condition info: both sexes, human, plasma, po, 50 mg, ripretinib 50 mg single oral dose alone, fasting, healthy participants (itraconazole study, N = 20); read-out: AUC0–∞, geometric mean (CV%)
Metric name: AUC(0-inf) (ng·h/mL)
Write it as a number; the unit ng·h/mL goes unstated.

Challenge: What does the record list as AUC(0-inf) for CCn1c(=O)c(-c2cc(NC(=O)Nc3ccccc3)c(F)cc2Br)cc2cnc(NC)cc21 ?
Response given: 4180
